Origin of values: BindingDB's records for doi:10.1016/j.bmcl.2016.06.076

Biological target: Diacylglycerol lipase-alpha (Homo sapiens, UniProt Q9Y4D2)
Sequence (Q9Y4D2 whole entry): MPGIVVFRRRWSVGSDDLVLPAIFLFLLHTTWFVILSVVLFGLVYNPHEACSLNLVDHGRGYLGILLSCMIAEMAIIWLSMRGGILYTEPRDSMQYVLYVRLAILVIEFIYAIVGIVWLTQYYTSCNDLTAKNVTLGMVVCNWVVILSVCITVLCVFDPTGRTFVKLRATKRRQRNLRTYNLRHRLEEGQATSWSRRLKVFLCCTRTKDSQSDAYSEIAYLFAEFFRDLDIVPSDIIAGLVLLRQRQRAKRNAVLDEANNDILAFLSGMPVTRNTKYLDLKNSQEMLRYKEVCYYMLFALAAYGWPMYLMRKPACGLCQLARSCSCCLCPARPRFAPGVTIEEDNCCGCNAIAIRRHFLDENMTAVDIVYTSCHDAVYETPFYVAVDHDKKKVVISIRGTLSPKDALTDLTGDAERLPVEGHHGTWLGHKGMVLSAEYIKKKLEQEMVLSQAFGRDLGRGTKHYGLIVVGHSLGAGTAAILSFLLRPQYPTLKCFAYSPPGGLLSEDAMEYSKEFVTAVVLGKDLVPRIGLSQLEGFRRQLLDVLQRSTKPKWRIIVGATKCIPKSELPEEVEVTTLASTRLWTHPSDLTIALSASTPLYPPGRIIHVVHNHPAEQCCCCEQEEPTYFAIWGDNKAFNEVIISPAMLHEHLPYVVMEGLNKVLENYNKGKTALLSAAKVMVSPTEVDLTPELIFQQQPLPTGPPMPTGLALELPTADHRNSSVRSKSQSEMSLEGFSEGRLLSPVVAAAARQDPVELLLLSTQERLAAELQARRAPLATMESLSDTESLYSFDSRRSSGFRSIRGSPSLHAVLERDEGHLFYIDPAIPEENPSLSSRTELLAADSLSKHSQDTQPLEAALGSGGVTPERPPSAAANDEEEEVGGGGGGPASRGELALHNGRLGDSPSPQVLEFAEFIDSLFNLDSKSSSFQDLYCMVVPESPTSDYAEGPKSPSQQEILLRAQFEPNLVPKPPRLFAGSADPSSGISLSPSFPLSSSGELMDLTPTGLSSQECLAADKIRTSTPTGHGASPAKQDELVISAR
property: pIC50
Numbers only, as −log10 of the molar value.

Ask | Under Diacylglycerol lipase-alpha (Homo sapiens, UniProt Q9Y4D2): pIC50 value of O=C(CCCCCc1ccccc1)c1nc2ncccc2o1 ?
Reply | 7.40
